- experimental-target: GST fusion PDZ mutant protein (R46E:K48D) (mammalian (so in the source)) (UniProt P57105)
- experiment: ELISA, wild type PDZ against PDZ R46E:K48D
endpoint-name: Affinity fold change (fold)

[I] P15 (VHH) VHH: QVQLVESGGGLVQAGGSLRLSCVASGRPFSSLDMGWFRQRPGKERDVVATINWTGDSTYYLDSVKGRFTISRDNAKNTVFLQMNSLKPEDTAVYYCAARGGGSSVDSEYDVGEFEYDYWGQGTQVTVSS
[II] P14 (VHH) VHH: QVQLVESGGGLVQAGDSLRLSCTASGRTFSTYTMAWFRQAPGKEREFVAAISWSGTYYADSVKGRFTISRDNAKNTVYLQMNSLKPEDTAVYYCAAVIGSTVDTYSPSDPLEYDYWGQGTQVTVSS
[III] P9 (VHH) VHH: DVQLVESGGGLVQAGGSLRLSCVASVASGRTFGWYDMGWFRQAPGKEREFVAAISWSGGSTYYADSVKGRSTISRDNAKNTVYLQMNSLKPEDTAVYYCAARGGGTSVDSDYDVGEFEYDYWGQGTQVTVSE
### Prompt Order the items by recorded Affinity fold change; the first position goes to the largest value. Ranked list of labels, please, in the requested order.
### Response I, III, II
